tested_target: APC (303–739) (Homo sapiens)
method_notes: FP competitive assay using tracer 7
Type: binding
setup_conditions: Repeat 3; Table 3 source data; read-out: IC50(μM) Repeat 3
Where a SMILES comes first, the peptide text is derived from it. [ ]: non-standard residue; d: D form. The star is where a group is joined. Adamantane1carbonyl = O=C(C12CC3CC(CC(C3)C1)C2)*; Benzoyl(4-OMe) = COc1ccc(C(=O)*)cc1; Benzoyl(4-Me) = Cc1ccc(C(=O)*)cc1; 2Furoyl = O=C(c1ccco1)*; Acryloyl = C=CC(=O)*; Mpa = O=C(O)CCS
measure: IC50 (µM)
Output spec: scalar in µM, unitless text.

// below: answered compounds
CC(C)C[C@H](NC(=O)[C@H](CO)NC(=O)[C@H](CCC(=O)O)NC(=O)CNC(=O)[C@H](C)NC(=O)C12CC3CC(CC(C3)C1)C2)C(=O)N[C@@H](Cc1ccc(O)cc1)C(=O)N[C@@H](CCC(=O)O)C(N)=O [MAI-505] (Adamantane1carbonyl-AGESLYE-NH2): 1.57
CC(C)C[C@H](NC(=O)[C@H](CO)NC(=O)[C@H](CCC(=O)O)NC(=O)CNC(=O)[C@H](C)NC(=O)CCS)C(=O)N[C@@H](Cc1ccc(O)cc1)C(=O)N[C@@H](CCC(=O)O)C(N)=O [MAI-502] ([Mpa]AGESLYE-NH2): 2.21
C=CC(=O)N[C@@H](C)C(=O)NCC(=O)N[C@@H](CCC(=O)O)C(=O)N[C@@H](CO)C(=O)N[C@@H](CC(C)C)C(=O)N[C@@H](Cc1ccc(O)cc1)C(=O)N[C@@H](CCC(=O)O)C(N)=O [MAI-501] (Acryloyl-AGESLYE-NH2): 22

## Task For the compound shown here, CC(C)C[C@H](NC(=O)[C@H](CO)NC(=O)[C@H](CCC(=O)O)NC(=O)CNC(=O)[C@H](C)NC(=O)c1ccco1)C(=O)N[C@@H](Cc1ccc(O)cc1)C(=O)N[C@@H](CCC(=O)O)C(N)=O [MAI-506] (2Furoyl-AGESLYE-NH2) , give the reported IC50.
## Result 0.457

## Task Also, Cc1ccc(C(=O)N[C@@H](C)C(=O)NCC(=O)N[C@@H](CCC(=O)O)C(=O)N[C@@H](CO)C(=O)N[C@@H](CC(C)C)C(=O)N[C@@H](Cc2ccc(O)cc2)C(=O)N[C@@H](CCC(=O)O)C(N)=O)cc1 [MAI-515] ({Benzoyl(4-Me)}-AGESLYE-NH2) please.
## Result 0.254

## Task Also, COc1ccc(C(=O)N[C@@H](C)C(=O)NCC(=O)N[C@@H](CCC(=O)O)C(=O)N[C@@H](CO)C(=O)N[C@@H](CC(C)C)C(=O)N[C@@H](Cc2ccc(O)cc2)C(=O)N[C@@H](CCC(=O)O)C(N)=O)cc1 [MAI-516] ({Benzoyl(4-OMe)}-AGESLYE-NH2) please.
## Result 0.0379

* * *

tested_target: APC (303–739) (Homo sapiens)
Sequence (P25054 303-739): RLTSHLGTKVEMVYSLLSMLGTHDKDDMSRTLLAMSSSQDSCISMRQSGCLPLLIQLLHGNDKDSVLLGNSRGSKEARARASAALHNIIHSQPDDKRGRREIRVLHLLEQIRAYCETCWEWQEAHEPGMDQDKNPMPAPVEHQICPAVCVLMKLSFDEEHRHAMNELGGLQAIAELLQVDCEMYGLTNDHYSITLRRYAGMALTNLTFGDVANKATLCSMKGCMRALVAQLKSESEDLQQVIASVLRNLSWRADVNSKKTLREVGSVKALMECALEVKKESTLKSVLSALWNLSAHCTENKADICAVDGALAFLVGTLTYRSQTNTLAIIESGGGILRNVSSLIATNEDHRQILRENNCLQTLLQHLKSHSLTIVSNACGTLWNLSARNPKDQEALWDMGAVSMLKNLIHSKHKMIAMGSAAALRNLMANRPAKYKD
method_notes: FP competitive assay using tracer 7
Format: binding
setup_conditions: mean of 3 repeats; Table 3 source data; read-out: IC50(μM) mean
Where a SMILES comes first, the peptide text is derived from it. [ ]: non-standard residue; d: D form. The star is where a group is joined. Cyclohexanecarbonyl = O=C(C1CCCCC1)*; Cyclopentanecarbonyl = O=C(C1CCCC1)*; Benzoyl(4-OMe) = COc1ccc(C(=O)*)cc1; Pyrrole(1-Me-2-CO) = Cn1cccc1C(=O)*; Benzoyl(4-Me) = Cc1ccc(C(=O)*)cc1; Nicotinoyl = O=C(c1cccnc1)*; 2Furoyl = O=C(c1ccco1)*; Mpa = O=C(O)CCS
measure: log10 of IC50 (log10 of the value in µM)
Remember, log10 of IC50, in µM.

// below: answered compounds
COc1ccc(C(=O)N[C@@H](C)C(=O)NCC(=O)N[C@@H](CCC(=O)O)C(=O)N[C@@H](CO)C(=O)N[C@@H](CC(C)C)C(=O)N[C@@H](Cc2ccc(O)cc2)C(=O)N[C@@H](CCC(=O)O)C(N)=O)cc1 [MAI-516] ({Benzoyl(4-OMe)}-AGESLYE-NH2): -1.38
CC(C)C[C@H](NC(=O)[C@H](CO)NC(=O)[C@H](CCC(=O)O)NC(=O)CNC(=O)[C@H](C)NC(=O)CCS)C(=O)N[C@@H](Cc1ccc(O)cc1)C(=O)N[C@@H](CCC(=O)O)C(N)=O [MAI-502] ([Mpa]AGESLYE-NH2): 0.31
CC(C)C[C@H](NC(=O)[C@H](CO)NC(=O)[C@H](CCC(=O)O)NC(=O)CNC(=O)[C@H](C)NC(=O)C1CCCCC1)C(=O)N[C@@H](Cc1ccc(O)cc1)C(=O)N[C@@H](CCC(=O)O)C(N)=O [MAI-504] (Cyclohexanecarbonyl-AGESLYE-NH2): 0.26
CC(C)C[C@H](NC(=O)[C@H](CO)NC(=O)[C@H](CCC(=O)O)NC(=O)CNC(=O)[C@H](C)NC(=O)c1cccnc1)C(=O)N[C@@H](Cc1ccc(O)cc1)C(=O)N[C@@H](CCC(=O)O)C(N)=O [MAI-513] (Nicotinoyl-AGESLYE-NH2): -0.53
CC(C)C[C@H](NC(=O)[C@H](CO)NC(=O)[C@H](CCC(=O)O)NC(=O)CNC(=O)[C@H](C)NC(=O)c1ccco1)C(=O)N[C@@H](Cc1ccc(O)cc1)C(=O)N[C@@H](CCC(=O)O)C(N)=O [MAI-506] (2Furoyl-AGESLYE-NH2): -0.40

## Task For the compound shown here, CC(C)C[C@H](NC(=O)[C@H](CO)NC(=O)[C@H](CCC(=O)O)NC(=O)CNC(=O)[C@H](C)NC(=O)c1cccn1C)C(=O)N[C@@H](Cc1ccc(O)cc1)C(=O)N[C@@H](CCC(=O)O)C(N)=O [MAI-510] ({Pyrrole(1-Me-2-CO)}-AGESLYE-NH2) , give the reported log10 of IC50.
## Result -0.47

## Task Also, CC(C)C[C@H](NC(=O)[C@H](CO)NC(=O)[C@H](CCC(=O)O)NC(=O)CNC(=O)[C@H](C)NC(=O)C1CCCC1)C(=O)N[C@@H](Cc1ccc(O)cc1)C(=O)N[C@@H](CCC(=O)O)C(N)=O [MAI-503] (Cyclopentanecarbonyl-AGESLYE-NH2) please.
## Result 0.76

## Task Also, Cc1ccc(C(=O)N[C@@H](C)C(=O)NCC(=O)N[C@@H](CCC(=O)O)C(=O)N[C@@H](CO)C(=O)N[C@@H](CC(C)C)C(=O)N[C@@H](Cc2ccc(O)cc2)C(=O)N[C@@H](CCC(=O)O)C(N)=O)cc1 [MAI-515] ({Benzoyl(4-Me)}-AGESLYE-NH2) please.
## Result -0.62

* * *

tested_target: APC (303–739) (Homo sapiens)
method_notes: FP competitive assay using tracer 7
Assay type: binding
setup_conditions: Repeat 1; Table 3 source data; read-out: IC50(μM) Repeat 1
Where a SMILES comes first, the peptide text is derived from it. The star is where a group is joined. Cyclohexanecarbonyl = O=C(C1CCCCC1)*; Nicotinoyl = O=C(c1cccnc1)*; 2Furoyl = O=C(c1ccco1)*; Acryloyl = C=CC(=O)*
measure: IC50 (µM)
Output spec: scalar in µM, unitless text.

// below: answered compounds
CC(C)C[C@H](NC(=O)[C@H](CO)NC(=O)[C@H](CCC(=O)O)NC(=O)CNC(=O)[C@H](C)NC(=O)c1cccnc1)C(=O)N[C@@H](Cc1ccc(O)cc1)C(=O)N[C@@H](CCC(=O)O)C(N)=O [MAI-513] (Nicotinoyl-AGESLYE-NH2): 0.234
C=CC(=O)N[C@@H](C)C(=O)NCC(=O)N[C@@H](CCC(=O)O)C(=O)N[C@@H](CO)C(=O)N[C@@H](CC(C)C)C(=O)N[C@@H](Cc1ccc(O)cc1)C(=O)N[C@@H](CCC(=O)O)C(N)=O [MAI-501] (Acryloyl-AGESLYE-NH2): 29.9
CC(C)C[C@H](NC(=O)[C@H](CO)NC(=O)[C@H](CCC(=O)O)NC(=O)CNC(=O)[C@H](C)NC(=O)C1CCCCC1)C(=O)N[C@@H](Cc1ccc(O)cc1)C(=O)N[C@@H](CCC(=O)O)C(N)=O [MAI-504] (Cyclohexanecarbonyl-AGESLYE-NH2): 2.24

Next compound, IC50 to be filled in.
## Task For the compound shown here, CC(C)C[C@H](NC(=O)[C@H](CO)NC(=O)[C@H](CCC(=O)O)NC(=O)CNC(=O)[C@H](C)NC(=O)c1ccco1)C(=O)N[C@@H](Cc1ccc(O)cc1)C(=O)N[C@@H](CCC(=O)O)C(N)=O [MAI-506] (2Furoyl-AGESLYE-NH2) , give the reported IC50.
## Result 0.323
